Molecular target: VapC (Klebsiella pneumoniae subsp. pneumoniae)
Experiment: Isothermal titration calorimetry (ITC), binding to VapC
Details: read-out: Kd (affinity to VapC)
Description: ITC was performed using MicroCal200 (GE Healthcare). The concentrations of protein and DNA were determined using NanoDrop (Thermo) at 280 nm and 260 nm, respectively. Stock solutions of peptides and small molecules were prepared at appropriate concentrations. Titration was performed at 25° C. The data were calculated by subtracting the background and fitted to a single-site binding model using the provided source-based software with MicroCal200.
Reported Metric: Kd (nM)
Give the value in nM but do not write nM after it.

// recorded Kd for GMEAQRQL [VapB^71-78, Y74A] : 170

// recorded Kd for GMEYARQL [VapB^71-78, Q75A] : 150

// recorded Kd for GMEYQRQL [VapB^71-78] : 110

---

Target: VapC (Klebsiella pneumoniae subsp. pneumoniae)
Sequence (A6TG81 1-127): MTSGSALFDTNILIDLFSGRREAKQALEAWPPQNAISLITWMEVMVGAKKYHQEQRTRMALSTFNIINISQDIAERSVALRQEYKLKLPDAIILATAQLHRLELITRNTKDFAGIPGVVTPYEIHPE
Assay: Isothermal titration calorimetry (ITC), binding to VapC
Conditions: 25° C., single-site binding model, read-out: Kd
Record form. Attribute: Kd. Fill in for each entry.
Quick note: unit goes after the number.

With VapC (Klebsiella pneumoniae subsp. pneumoniae) as the test system, NC(=O)NC(=O)CCN1CCC(C(=O)c2ccc(O)cc2)CC1 showed Kd of 35 nM

With VapC (Klebsiella pneumoniae subsp. pneumoniae) as the test system, CCC1Oc2cc(S(=O)(=O)N3CCCC(C(=O)Nc4ccc(F)cc4)C3)c(C)cc2NC1=O (centres unmarked) showed Kd of 22 nM

---

Molecular target: VapBC complex (Klebsiella pneumoniae subsp. pneumoniae, UniProt A6TG81)
Experiment: VapBC complex disruption assay (RNase activity of VapC released from the complex)
Details: inhibition curves, 10 μM VapBC complex
Reported Metric: pIC50
Kindly note that pIC50 refers to -log10 of the concentration in mol/L and answer with the value alone.

// recorded pIC50 for CCC1Oc2cc(S(=O)(=O)N3CCCC(C(=O)Nc4ccc(F)cc4)C3)c(C)cc2NC1=O (centres unmarked) : 6.40

// recorded pIC50 for NC(=O)NC(=O)CCN1CCC(C(=O)c2ccc(O)cc2)CC1 : 6.38
